# protocol-summary: self-splicing fitness, log relative to wild type (ln ratio); higher = more splicing; Tetrahymena group I intron in knt gene, E. coli kanamycin selection, DiMSum; sequences stand for … in CUCUCU…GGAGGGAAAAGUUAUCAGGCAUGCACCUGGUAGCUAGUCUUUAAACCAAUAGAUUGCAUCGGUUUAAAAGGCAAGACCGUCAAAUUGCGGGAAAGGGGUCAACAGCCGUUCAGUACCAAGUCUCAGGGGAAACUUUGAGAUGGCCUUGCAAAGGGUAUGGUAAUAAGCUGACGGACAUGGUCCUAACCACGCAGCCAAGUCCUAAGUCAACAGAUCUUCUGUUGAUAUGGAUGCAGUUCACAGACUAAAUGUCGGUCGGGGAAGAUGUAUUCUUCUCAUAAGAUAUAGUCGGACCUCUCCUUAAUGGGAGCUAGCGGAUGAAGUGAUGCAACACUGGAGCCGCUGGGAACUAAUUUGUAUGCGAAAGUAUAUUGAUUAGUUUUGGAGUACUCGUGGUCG;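 further: selection with 25 µg/mL kanamycin versus none on LB agar overnight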
# experimental-parameters: 30 °C
Below is a list of entries, each paired with its recorded self-splicing fitness (ln) value.

sequence-record	self-splicing fitness (ln)
GUAUAGCAAUAUUACGAGAU	-3
AGGUAGCAAUAUUACGAGCA	-1.33
GUCGAGCAAUAUUACGUGUC	-2.18
UGACAGCAAUAUUACGACCG	0.701
AAGCAGCAAUAUUACGCAAC	-2.62
UCAGAGCAAUAUUACGUUAA	-3.58
UAUAAGCAAUAUUACGAGGU	-3.53
CAUAAGCAAUAUUACGAAUA	-1.84
UCUAAGCAAUAUUACGCUAA	-3.04
UUCUAGCAAUAUUACGACAG	-1.13
UAGCAGCAAUAUUACGAUCG	-0.76
GAGCAGCAAUAUUACGAGGC	-2.67
GGACAGCAAUAUUACGGAGU	-1.61
AUGGAGCAAUAUUACGGCCU	-1.32
AGCGAGCAAUAUUACGUGUG	-3.86
UGAUAGCAAUAUUACGUCGA	-1.69
CUGGAGCAAUAUUACGGUAC	-2.41
UGGAAGCAAUAUUACGCUUU	-3.64
UGUUAGCAAUAUUACGUUUG	-2.14
UCGCAGCAAUAUUACGAAAU	-3.62

* * *

# protocol-summary: self-splicing fitness, log relative to wild type (ln ratio); higher = more splicing; Tetrahymena group I intron in knt gene, E. coli kanamycin selection, DiMSum; sequences stand for … in CUCUCU…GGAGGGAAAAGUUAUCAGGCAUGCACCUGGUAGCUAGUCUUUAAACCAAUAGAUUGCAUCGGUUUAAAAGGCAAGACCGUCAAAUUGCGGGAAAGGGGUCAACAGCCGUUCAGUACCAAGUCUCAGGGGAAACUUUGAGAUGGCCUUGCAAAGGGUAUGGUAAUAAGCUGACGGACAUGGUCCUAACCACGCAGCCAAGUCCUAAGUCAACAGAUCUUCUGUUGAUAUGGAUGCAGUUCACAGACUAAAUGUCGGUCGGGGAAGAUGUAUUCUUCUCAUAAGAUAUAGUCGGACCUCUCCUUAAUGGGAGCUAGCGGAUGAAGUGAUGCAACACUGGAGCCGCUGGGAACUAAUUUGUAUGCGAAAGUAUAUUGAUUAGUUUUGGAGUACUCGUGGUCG
# experimental-parameters: 30 °C

sequence-record	self-splicing fitness (ln)
ACAGAGCAAUAUUACGCUGC	-4.55
CGCCAGCAAUAUUACGGGGA	-3.02
GAGUAGCAAUAUUACGGGAC	-3.17

Ref: the supplement of paper PMC7877785
